The reader will find reported neutrophils values listed item by item below.
Experiment: Hematology assays in cynomolgus monkeys (Example 45)
Assay type: in vivo
Details: day −5
Use % as the unit, but write only the number.

[in] Item ISIS 416850: MOE gapmer, nucleobases 1275 to 1318 of SEQ ID NO: 1 (Table 8) (antisense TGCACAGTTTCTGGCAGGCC; MOE gapmer, wing and gap sizes not given here) : provide neutrophils
[out] 52

[in] Indicate its recorded neutrophils; the substance in question is ISIS 416838: MOE gapmer, nucleobases 1018 to 1042 of SEQ ID NO: 1 (Table 6) (antisense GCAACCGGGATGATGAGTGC; MOE gapmer, wing and gap sizes not given here)
[out] 35

----------
Experiment: Hematology assays in cynomolgus monkeys (Example 45)
Assay type: in vivo
Details: day 36; escalating dose regimen
As shown below, each of these substances has a reported MCV value.
Provide only the numeric value, understood in fL.

Sample answers from the record:
[[record]]
substance = "ISIS 416838: MOE gapmer, nucleobases 1018 to 1042 of SEQ ID NO: 1 (Table 6) (antisense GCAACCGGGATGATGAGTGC; MOE gapmer, wing and gap sizes not given here)"
units_symbol = "fL"
readout_number = 78

[[record]]
substance = "ISIS 416850: MOE gapmer, nucleobases 1275 to 1318 of SEQ ID NO: 1 (Table 8) (antisense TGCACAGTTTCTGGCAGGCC; MOE gapmer, wing and gap sizes not given here)"
units_symbol = "fL"
readout_number = 80

[[record]]
substance = "ISIS 416858: MOE gapmer, nucleobases 1275 to 1318 of SEQ ID NO: 1 (Table 8) (antisense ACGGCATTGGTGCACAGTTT; MOE gapmer, wing and gap sizes not given here)"
units_symbol = "fL"
readout_number = 75

[[record]]
substance = "ISIS 416864: MOE gapmer, nucleobases 1275 to 1318 of SEQ ID NO: 1 (Table 8) (antisense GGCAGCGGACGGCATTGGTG; MOE gapmer, wing and gap sizes not given here)"
units_symbol = "fL"
readout_number = 76


[in] Supply recorded MCV for ISIS 417002: MOE gapmer, nucleobases 1275 to 1318 of SEQ ID NO: 1 (Table 8) (antisense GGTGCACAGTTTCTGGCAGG; MOE gapmer, wing and gap sizes not given here) here.
[out] 78

----------
Test: Hematology assays in cynomolgus monkeys (Example 46)
Format: in vivo
Conditions: Day-14
Procedure: Groups, each consisting of two male and two female monkeys, were injected subcutaneously with 25 mg/kg of ISIS 416850, ISIS 449709, ISIS 445522, ISIS 449710, ISIS 449707, ISIS 449711, ISIS 449708, 416858, and ISIS 445531. […] Body weights were taken 14 days and 7 days before the start of treatment and were then measured weekly throughout the treatment period. […]
Strand notation (5' to 3'): a small letter for the sugar, then the base; units joined by * are phosphorothioate-linked, units joined directly phosphodiester-linked; [ ] holds rarer units or linkages, { } end groups; capitals alone tell only the bases. e = 2'-O-(2-methoxyethyl) (MOE); [5mC] = 5-methylcytosine; d = 2'-deoxy (DNA)
parameter: MCV (fL)
# value in fL; strip the unit string

Here are 4 substances together with their reported answers.
[[record]]
substance = "ISIS 449707: 3-8-3, 4-8-4, 2-10-2, 3-10-3 or 4-10-4 MOE microwalk gapmer (Table 46) (antisense e[5mC]*eA*e[5mC]*eA*dG*dT*dT*dT*d[5mC]*dT*dG*dG*e[5mC]*eA*eG*eG)"
parameter = "MCV"
units_symbol = "fL"
readout_number = 71

[[record]]
substance = "ISIS 445522: 5-8-5 or 6-8-6 MOE microwalk gapmer (Table 44) (antisense eG*e[5mC]*eA*e[5mC]*eA*dG*dT*dT*dT*d[5mC]*dT*dG*dG*e[5mC]*eA*eG*eG*e[5mC])"
parameter = "MCV"
units_symbol = "fL"
readout_number = 72

[[record]]
substance = "ISIS 445531: 5-8-5 or 6-8-6 MOE microwalk gapmer (Table 44) (antisense eG*eG*e[5mC]*eA*eT*dT*dG*dG*dT*dG*d[5mC]*dA*d[5mC]*eA*eG*eT*eT*eT)"
parameter = "MCV"
units_symbol = "fL"
readout_number = 72

[[record]]
substance = "ISIS 449709: 3-8-3, 4-8-4, 2-10-2, 3-10-3 or 4-10-4 MOE microwalk gapmer (Table 46) (antisense eG*e[5mC]*eA*e[5mC]*dA*dG*dT*dT*dT*d[5mC]*dT*dG*dG*d[5mC]*eA*eG*eG*e[5mC])"
parameter = "MCV"
units_symbol = "fL"
readout_number = 72


The record that follows has no MCV shown yet.
[in] State its MCV: ISIS 449708: 3-8-3, 4-8-4, 2-10-2, 3-10-3 or 4-10-4 MOE microwalk gapmer (Table 46) (antisense eA*e[5mC]*eA*dG*dT*dT*dT*d[5mC]*dT*dG*dG*e[5mC]*eA*eG)
[out] 73
